- Study system: ERK5 (Homo sapiens, UniProt Q13164)
- Construct: made in house
- Sequence (Q13164 whole entry): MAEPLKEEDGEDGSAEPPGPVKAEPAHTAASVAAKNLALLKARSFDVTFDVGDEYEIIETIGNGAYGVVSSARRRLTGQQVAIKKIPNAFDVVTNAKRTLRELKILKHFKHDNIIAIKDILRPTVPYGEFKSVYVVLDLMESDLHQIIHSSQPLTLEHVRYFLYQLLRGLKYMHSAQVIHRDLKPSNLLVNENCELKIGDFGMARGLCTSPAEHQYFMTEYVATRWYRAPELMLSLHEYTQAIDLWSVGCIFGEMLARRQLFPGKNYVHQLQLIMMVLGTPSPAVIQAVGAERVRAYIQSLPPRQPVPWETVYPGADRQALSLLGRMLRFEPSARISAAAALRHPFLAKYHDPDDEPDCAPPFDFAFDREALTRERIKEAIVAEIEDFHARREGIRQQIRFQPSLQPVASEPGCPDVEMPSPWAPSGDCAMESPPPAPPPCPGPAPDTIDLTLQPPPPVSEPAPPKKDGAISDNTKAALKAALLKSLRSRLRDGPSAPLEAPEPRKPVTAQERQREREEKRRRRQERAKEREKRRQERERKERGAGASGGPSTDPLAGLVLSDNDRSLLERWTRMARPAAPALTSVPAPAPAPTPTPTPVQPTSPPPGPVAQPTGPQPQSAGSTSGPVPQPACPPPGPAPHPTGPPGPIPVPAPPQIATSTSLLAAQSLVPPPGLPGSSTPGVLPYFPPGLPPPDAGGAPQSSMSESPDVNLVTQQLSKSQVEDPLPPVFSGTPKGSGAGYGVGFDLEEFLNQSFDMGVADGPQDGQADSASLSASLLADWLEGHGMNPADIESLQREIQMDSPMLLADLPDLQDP
- Assay comment: ERK5 IMAP assay (fluorescence polarisation)
- Type: biochemical
- Condition set: average (e.g. geometric mean) where more than one data point; read-out: ERK5 IC50
pIC50: −log10 of the molar value.
Reported pIC50 is given for each of the following compounds.
Assay readout: pIC50

mol_smiles=COc1ccc(F)c(C(=O)c2c[nH]c(C(=O)Nc3cncnc3)c2)c1Cl assay_readout=pIC50 result_value=6.36
mol_smiles=O=C(NC1CCN(C(=O)C(F)(F)F)CC1)c1cc(C(=O)c2c(Cl)ccc(Cl)c2F)c[nH]1 assay_readout=pIC50 result_value=6.28
mol_smiles=CCN(CC)CCNc1ccc(NC(=O)c2cc(C(=O)c3c(Cl)ccc(Cl)c3F)c[nH]2)cn1 assay_readout=pIC50 result_value=7.73
mol_smiles=O=C(Nc1cnn(C2CNC2)c1)c1cc(C(=O)c2c(Cl)ccc(Cl)c2F)c[nH]1 assay_readout=pIC50 result_value=7.50
mol_smiles=CN1CCC(NC(=O)c2cc(C(=O)c3c(F)ccc(Cl)c3F)c[nH]2)CC1 assay_readout=pIC50 result_value=6.81
mol_smiles=CC(C)(C)OC(=O)N1CCC(NC(=O)c2cc(C(=O)c3c(F)cccc3F)c[nH]2)CC1 assay_readout=pIC50 result_value=5.54
mol_smiles=O=C(Nc1cnn(C2CCNCC2)c1)c1cc(C(=O)c2c(F)cccc2Cl)c[nH]1 assay_readout=pIC50 result_value=6.91
mol_smiles=CN1CCC(NC(=O)c2cc(C(=O)c3c(F)cccc3Cl)c[nH]2)CC1 assay_readout=pIC50 result_value=6.70
mol_smiles=CCCc1ccncc1NC(=O)c1cc(C(=O)c2c(Cl)ccc(Cl)c2F)c[nH]1 assay_readout=pIC50 result_value=5.55
mol_smiles=O=C(Nc1ccc(NCCN2CCOCC2)nc1)c1cc(C(=O)c2c(Cl)ccc(Cl)c2F)c[nH]1 assay_readout=pIC50 result_value=7.24
mol_smiles=CC(=O)N1CCC(NC(=O)c2cc(C(=O)c3c(F)cccc3Cl)c[nH]2)CC1 assay_readout=pIC50 result_value=6.34
mol_smiles=CS(=O)(=O)CCNc1ccc(NC(=O)c2cc(C(=O)c3c(Cl)ccc(Cl)c3F)c[nH]2)cn1 assay_readout=pIC50 result_value=6.67

###

- Study system: ERK5 (Homo sapiens, UniProt Q13164)
- Construct: made in house
- Assay comment: ERK5 IMAP assay (fluorescence polarisation)
- Assay type: biochemical
- Condition set: average (e.g. geometric mean) where more than one data point; read-out: ERK5 IC50
pIC50: −log10 of the molar value.
Reported pIC50 is given for each of the following compounds.
Assay readout: pIC50

compound="COc1ccc(Cl)c(C(=O)c2c[nH]c(C(=O)Nc3cnn(C4CCN(CC(F)(F)F)CC4)c3)c2)c1F [Example 64]" study_system="ERK5 (Homo sapiens, UniProt Q13164)" result_value=5.52
compound="CS(=O)(=O)CCn1cc(NC(=O)c2cc(C(=O)c3c(Cl)ccc(Cl)c3F)c[nH]2)cn1 [Example 238]" study_system="ERK5 (Homo sapiens, UniProt Q13164)" result_value=6.93
compound="COc1ccc(Cl)c(C(=O)c2c[nH]c(C(=O)Nc3cccnc3)c2)c1F [Example 72]" study_system="ERK5 (Homo sapiens, UniProt Q13164)" result_value=7.04
compound="O=C(Nc1ccncc1)c1cc(C(=O)c2c(F)cccc2C(F)(F)F)c[nH]1 [Example 183]" study_system="ERK5 (Homo sapiens, UniProt Q13164)" result_value=5.73
compound="O=C(NC1CCNC1)c1cc(C(=O)c2c(F)cccc2F)c[nH]1 (centres unmarked) [Example 125]" study_system="ERK5 (Homo sapiens, UniProt Q13164)" result_value=4.51
compound="O=C(Nc1cccnc1)c1cc(C(=O)c2cc(F)ccc2F)c[nH]1 [Example 225]" study_system="ERK5 (Homo sapiens, UniProt Q13164)" result_value=5.22
compound="O=C(Nc1cnn(Cc2ccccn2)c1)c1cc(C(=O)c2c(Cl)ccc(Cl)c2F)c[nH]1 [Example 48]" study_system="ERK5 (Homo sapiens, UniProt Q13164)" result_value=7.09
compound="CN(c1ccc(NC(=O)c2cc(C(=O)c3c(Cl)ccc(Cl)c3F)c[nH]2)cn1)C1CCNCC1 [Example 107]" study_system="ERK5 (Homo sapiens, UniProt Q13164)" result_value=7.61

###

- Study system: ERK5 (Homo sapiens, UniProt Q13164)
- Construct: made in house
- Assay comment: ERK5 IMAP assay (fluorescence polarisation)
- Format: biochemical
- Condition set: average (e.g. geometric mean) where more than one data point; read-out: ERK5 IC50
Assay readout: IC50

mol_smiles=O=C(Nc1ccnnc1)c1cc(C(=O)c2c(F)cccc2Br)c[nH]1 study_system="ERK5 (Homo sapiens, UniProt Q13164)" result_value="0.818 µM"
mol_smiles=O=C(NC1CCNCC1)c1cc(C(=O)c2c(F)cccc2F)c[nH]1 study_system="ERK5 (Homo sapiens, UniProt Q13164)" result_value="1.26 µM"
mol_smiles=CCOc1ccncc1NC(=O)c1cc(C(=O)c2c(Cl)ccc(Cl)c2F)c[nH]1 study_system="ERK5 (Homo sapiens, UniProt Q13164)" result_value="1.38 µM"
mol_smiles=Cc1ncc(NC(=O)c2cc(C(=O)c3c(F)cccc3Br)c[nH]2)cn1 study_system="ERK5 (Homo sapiens, UniProt Q13164)" result_value="1.19 µM"
